Items are presented alongside their recorded corrected association response.
# ASSAY TARGET: recombinant human OX40 (Acro Biosystems, cat. no. OXO-H5224) (human) (UniProt P43489)
# Sequence (P43489 29-216 limits assumed): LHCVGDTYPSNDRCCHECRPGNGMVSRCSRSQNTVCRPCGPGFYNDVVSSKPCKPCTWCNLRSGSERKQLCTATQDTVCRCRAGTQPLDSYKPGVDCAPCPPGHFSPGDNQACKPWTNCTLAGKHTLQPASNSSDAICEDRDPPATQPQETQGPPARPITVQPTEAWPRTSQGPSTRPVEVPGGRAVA
# ASSAY NOTES: BLI cross-block; competitor (immobilized 1st Ab): IgG1-CD134-003

Here are 2 binders together with their reported answers.
stdin: Specify corrected association response for IgG1-CD134-MEDI0562 (antibody, INN chains, looked up, V domains shown, IgG1) VH: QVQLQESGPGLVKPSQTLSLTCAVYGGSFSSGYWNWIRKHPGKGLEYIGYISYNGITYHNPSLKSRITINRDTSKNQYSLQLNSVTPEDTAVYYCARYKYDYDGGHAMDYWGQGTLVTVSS VL: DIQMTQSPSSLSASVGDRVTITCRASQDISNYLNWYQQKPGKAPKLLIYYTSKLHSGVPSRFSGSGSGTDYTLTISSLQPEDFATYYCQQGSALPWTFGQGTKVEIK and stop.
stdout: 1.39 nm

stdin: Specify corrected association response for IgG1-CD134-GBR830 (antibody, INN chains, looked up, V domains shown, IgG1) VH: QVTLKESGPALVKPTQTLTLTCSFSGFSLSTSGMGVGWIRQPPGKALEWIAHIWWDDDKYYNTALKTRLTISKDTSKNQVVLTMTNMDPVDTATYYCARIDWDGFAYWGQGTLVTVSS VL: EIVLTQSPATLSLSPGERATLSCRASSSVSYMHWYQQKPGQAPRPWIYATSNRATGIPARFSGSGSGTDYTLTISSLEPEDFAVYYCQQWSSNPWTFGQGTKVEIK and stop.
stdout: 0.97 nm

***
stdin: Specify corrected association response for IgG1-CD134-ABBV368 (antibody, INN chains, looked up, V domains shown, IgG1) VH: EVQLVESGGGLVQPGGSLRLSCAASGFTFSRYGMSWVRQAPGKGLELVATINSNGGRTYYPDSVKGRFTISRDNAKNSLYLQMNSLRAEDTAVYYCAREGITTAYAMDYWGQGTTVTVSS VL: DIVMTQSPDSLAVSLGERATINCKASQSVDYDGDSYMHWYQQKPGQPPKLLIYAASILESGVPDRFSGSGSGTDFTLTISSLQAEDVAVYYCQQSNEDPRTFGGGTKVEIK and stop.
stdout: 1.27 nm
